# test: Antioxidant activity assessed as inhibition of singlet oxygen-induced oxidation of DHR by rhodamine 123 staining
# Format: functional
# measurement-context: read-out: IC50
readout: IC50 (µM)

1) COC(=O)[C@H](Cc1cn(C/C=C/c2ccccc2)c2ccccc12)NC(C)=O: 971
2) N[C@@H](Cc1c[nH]c2ccccc12)C(=O)O: 992
3) CC(C)CCn1cc(CCN2C(=O)c3ccccc3C2=O)c2ccccc21: 1030
